Target: sGC α1/β1 heterodimer (Homo sapiens, UniProt Q02108+Q02153)
Construct: expressed in transfected cells
Sequence (Q02108 whole entry): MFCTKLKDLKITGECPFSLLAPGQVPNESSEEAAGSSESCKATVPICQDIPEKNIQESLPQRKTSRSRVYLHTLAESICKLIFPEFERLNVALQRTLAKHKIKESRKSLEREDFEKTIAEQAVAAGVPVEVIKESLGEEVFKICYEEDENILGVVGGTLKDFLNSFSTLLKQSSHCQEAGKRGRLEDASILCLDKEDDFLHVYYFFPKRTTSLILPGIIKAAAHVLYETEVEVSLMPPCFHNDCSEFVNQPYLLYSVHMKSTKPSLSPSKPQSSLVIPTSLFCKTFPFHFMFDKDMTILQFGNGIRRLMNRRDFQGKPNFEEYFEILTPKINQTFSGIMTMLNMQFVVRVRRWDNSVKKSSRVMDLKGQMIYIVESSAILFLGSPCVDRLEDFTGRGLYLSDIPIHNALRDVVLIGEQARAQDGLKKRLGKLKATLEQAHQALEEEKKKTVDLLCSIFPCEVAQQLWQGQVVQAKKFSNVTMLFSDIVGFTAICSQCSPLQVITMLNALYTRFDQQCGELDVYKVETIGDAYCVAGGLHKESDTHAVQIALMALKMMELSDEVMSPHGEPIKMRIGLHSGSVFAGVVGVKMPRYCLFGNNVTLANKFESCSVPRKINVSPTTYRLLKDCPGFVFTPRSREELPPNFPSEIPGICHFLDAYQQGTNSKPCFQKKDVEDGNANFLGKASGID
Sequence (Q02153 whole entry): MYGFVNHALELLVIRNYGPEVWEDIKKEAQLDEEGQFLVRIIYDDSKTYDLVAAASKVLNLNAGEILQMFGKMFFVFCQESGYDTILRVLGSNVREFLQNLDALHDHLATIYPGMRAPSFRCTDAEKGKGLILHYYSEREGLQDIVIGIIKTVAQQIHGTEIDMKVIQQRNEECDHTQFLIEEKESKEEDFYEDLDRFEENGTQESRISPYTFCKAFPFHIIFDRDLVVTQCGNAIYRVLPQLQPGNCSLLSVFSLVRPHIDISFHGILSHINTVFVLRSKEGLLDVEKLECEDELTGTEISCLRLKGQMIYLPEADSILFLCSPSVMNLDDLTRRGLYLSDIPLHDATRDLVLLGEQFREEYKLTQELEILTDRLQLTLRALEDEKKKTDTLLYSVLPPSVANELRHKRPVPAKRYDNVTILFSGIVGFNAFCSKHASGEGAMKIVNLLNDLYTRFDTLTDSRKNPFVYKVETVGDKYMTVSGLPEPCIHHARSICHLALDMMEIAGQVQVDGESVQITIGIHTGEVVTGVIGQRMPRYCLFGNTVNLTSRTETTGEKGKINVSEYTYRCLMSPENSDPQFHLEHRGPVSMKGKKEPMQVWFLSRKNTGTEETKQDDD
Experiment: Cell-Based sGC Functional Assay (CASA Assay), cGMP generation in CHO-K1/sGC cells;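 further: reference Compound A is a published heme-dependent sGC activator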
Conditions: maximum cGMP production of Compound A set to 100% activation, read-out: % Act. (percent activation relative to Compound A)
measured endpoint: Emax (%)

C[C@@]1(c2ccc(F)cc2)C(=O)Nc2nc(-c3cn4ncnc4c(CCC(F)(F)C(F)(F)F)n3)nc(O)c21 [Example 119A]	124
Nc1nc(-c2cn3ncnc3c(CCC(F)(F)F)n2)nc2c1C(c1ccc(C(F)(F)F)cn1)(C1CC1)C(=O)N2 (centres unmarked) [Example 80A]	115
Cc1ccc(C2(C)C(=O)Nc3nc(-c4cn5ncnc5c(CCCC(F)(F)F)n4)nc(N)c32)nc1 (centres unmarked) [Example 46B]	67
O=C1Nc2nc(-c3cn4ncnc4c(CCCC(F)(F)F)n3)nc(O)c2C1(c1ccc(F)c(F)c1)C1CC1 (centres unmarked) [Example 141A]	133
CC1(c2ccc(C#N)cn2)C(=O)Nc2nc(-c3cn4ncnc4c(CCC(F)(F)C(F)(F)F)n3)nc(O)c21 (centres unmarked) [Example 131A]	99
Nc1nc(-c2cn3ncnc3c(CCCC(F)(F)F)n2)nc2c1C(c1ncc(C(F)(F)F)cn1)(C1CC1)C(=O)N2 (single isomer, unassigned) [Example 180B]	97
CC1(c2cn(C3CC3)nn2)C(=O)Nc2nc(-c3cn4ncnc4c(CCC(F)(F)C(F)(F)F)n3)nc(N)c21 (centres unmarked) [Example 95B]	74
C[C@@]1(c2ccc(F)cc2)C(=O)Nc2nc(-c3cn4ncnc4c(CCC(F)(F)F)n3)ncc21 [Example 174A]	133
CC1(c2ccccn2)C(=O)Nc2nc(-c3cn4ncnc4c(CCC(F)(F)C(F)(F)F)n3)nc(O)c21 (centres unmarked) [Example 127B]	129
Nc1nc(-c2cn3ncnc3c(CCC(F)(F)C(F)(F)F)n2)nc2c1C(c1ccc(C(F)(F)F)cn1)(C1CC1)C(=O)N2 (centres unmarked) [Example 15A]	139

A. COc1ccc(C2(C)C(=O)Nc3nc(-c4cn5ncnc5c(CCCC(F)(F)F)n4)nc(N)c32)nc1 (centres unmarked) [Example 40A]
B. CC1(c2ccc(C(F)F)cn2)C(=O)Nc2nc(-c3cn4ncnc4c(CCCC(F)(F)F)n3)nc(O)c21 (centres unmarked) [Example 181B]
C. CC1(c2cnc(C(F)(F)F)cn2)C(=O)Nc2nc(-c3cn4ncnc4c(CCCC(F)(F)F)n3)nc(N)c21 (centres unmarked) [Example 50B]
D. CC1(c2ccc(F)c(Cl)c2)C(=O)Nc2nc(-c3cn4ncnc4c(CCCC(F)(F)F)n3)nc(N)c21 (centres unmarked) [Example 42B]
Rank order required: Emax, descending. List the labels in the requested order.
C, A, D, B
(C: 191%, A: 130%, D: 82%, B: 55%)
